Reported RP-LC retention time values for a set of molecules
# experiment notes: gradient 5% acetonitrile 3 min, to 50% in 2 min, to 85% in 15 min, held 3 min, 100 µL/min
# reported conditions: column: Zorbax Extend-C18 2.1 x 50 mm; eluents: water / acetonitrile, 0.1% formic acid
Write it as a number; the unit s goes unstated.

Solved cases (5 shown):
[
  {
    "molecule": "CCOC(=O)c1c(C)[nH]c(C(=O)N2CCC(CC(=O)NCc3ccc(N(C)C)cc3)CC2)c1C",
    "unit tag": "s",
    "RP-LC retention time": 620
  },
  {
    "molecule": "O=C(Nc1nc(-c2ccc(F)cc2)cs1)c1c(-c2ccc(F)cc2)nc2n1CCS2(=O)=O",
    "unit tag": "s",
    "RP-LC retention time": 1050
  },
  {
    "molecule": "CC(CCc1ccccc1)NC(=O)C(=O)NC1CCCC1 (configuration not stated)",
    "unit tag": "s",
    "RP-LC retention time": 925
  },
  {
    "molecule": "Cc1c(C(=O)C(=O)NCc2ccccn2)c2ccccc2n1C",
    "unit tag": "s",
    "RP-LC retention time": 625
  },
  {
    "molecule": "Cc1ccc(S(=O)(=O)N2CCCC2C(=O)Nc2nnc(-c3ccc(C)c(C)c3)o2)cc1 (configuration not stated)",
    "unit tag": "s",
    "RP-LC retention time": 872
  }
]

Challenge: I am curious: what RP-LC retention time value has been reported for `COc1ccccc1CNc1c(-c2nc(C(C)C)no2)cnc2nc(C)ccc12` ?
Response given: 797

Challenge: Same for `CCN(Cc1ccc(OC)cc1)Cc1cc(=O)c2cc(F)ccc2[nH]1`
Response given: 613

Challenge: Same for `COC(=O)c1ccccc1NC(=O)NCCc1c(C)nn(C)c1C`
Response given: 629

* * *

# experiment notes: gradient 5% acetonitrile 3 min, to 50% in 2 min, to 85% in 15 min, held 3 min, 100 µL/min
# reported conditions: column: Zorbax Extend-C18 2.1 x 50 mm; eluents: water / acetonitrile, 0.1% formic acid
Reported RP-LC retention time values for a set of molecules
Please state the number and follow it with the unit.

[
  {
    "molecule": "COc1ccc2c(c1)C1(CCN(S(=O)(=O)c3ccccc3F)C1)C(=O)N2 (stereo unspecified)",
    "RP-LC retention time": "808 s"
  },
  {
    "molecule": "CCCn1cc(CCNS(=O)(=O)c2cccc(F)c2)c2cccnc21",
    "RP-LC retention time": "837 s"
  },
  {
    "molecule": "Cc1oc(C(C)C)nc1C(=O)Nc1ccc(F)c(Cl)c1",
    "RP-LC retention time": "1170 s"
  },
  {
    "molecule": "Cc1cc(C(=O)Nc2ccc(-c3ccn[nH]3)cc2)c(C)o1",
    "RP-LC retention time": "716 s"
  },
  {
    "molecule": "CC(=O)Nc1ccc2c(c1)CN(C(=O)c1c(F)cccc1F)C(C(=O)N1CCCC1)C2 (stereo unspecified)",
    "RP-LC retention time": "873 s"
  }
]

// moving on: another record for RP-LC retention time
Challenge: I am curious: what RP-LC retention time value has been reported for `COc1ccc(C)c2sc(N(CCN(C)C)C(=O)c3cnn(-c4ccccc4)c3C)nc12` ?
Response given: 632 s

* * *

# experiment notes: gradient 5% acetonitrile 3 min, to 50% in 2 min, to 85% in 15 min, held 3 min, 100 µL/min
# reported conditions: column: Zorbax Extend-C18 2.1 x 50 mm; eluents: water / acetonitrile, 0.1% formic acid
readout name: RP-LC retention time

Challenge: I am curious: what RP-LC retention time value has been reported for CCOCCCNC(=O)C1CCCN(c2ccc(=O)n(-c3ccc(C)c(Cl)c3)n2)C1 (configuration not stated) ?
Response given: 826 s

* * *

# experiment notes: gradient 5% acetonitrile 3 min, to 50% in 2 min, to 85% in 15 min, held 3 min, 100 µL/min
# reported conditions: column: Zorbax Extend-C18 2.1 x 50 mm; eluents: water / acetonitrile, 0.1% formic acid
Reported RP-LC retention time values for a set of compounds
Please state the number and follow it with the unit.

Challenge: I am curious: what RP-LC retention time value has been reported for CCCC(NC(=O)c1cc(C)cc(C)c1)C(=O)Nc1nc2ccccc2[nH]1 (configuration not stated) ?
Response given: 751 s

Challenge: Same for COCC(CN1CCN(C2=NS(=O)(=O)c3ccccc32)CC1)OC(=O)c1ccc(C)cc1 (configuration not stated)
Response given: 646 s

Challenge: Same for COc1cc(OC)c(NC(=O)NCC2(N3CCOCC3)CCOC2)cc1Cl (configuration not stated)
Response given: 612 s

Challenge: Same for `CSc1ccc(CCNC(=O)c2ccc3c(c2)nc(C)c(=O)n3C)cc1`
Response given: 765 s

Challenge: Same for Cc1ccc(N2C(=O)Cn3cccc3C2C(=O)NC2CCCCC2C)cc1 (configuration not stated)
Response given: 947 s

Challenge: Same for CCC1CCCCN1C(=O)c1cnc2nc(C)ccc2c1Nc1cccc(C(=O)OC)c1 (configuration not stated)
Response given: 653 s

Challenge: Same for `Cc1cccc(-c2nc(Cc3noc(-c4ccncc4)n3)c(C)o2)c1`
Response given: 1010 s

Challenge: Same for `CCc1ccc(NS(=O)(=O)c2cc(-c3ccn[nH]3)sc2C)cc1`
Response given: 854 s

* * *

# experiment notes: gradient 5% acetonitrile 3 min, to 50% in 2 min, to 85% in 15 min, held 3 min, 100 µL/min
# reported conditions: column: Zorbax Extend-C18 2.1 x 50 mm; eluents: water / acetonitrile, 0.1% formic acid
readout name: RP-LC retention time (s)
Write it as a number; the unit s goes unstated.

Solved cases (5 shown):
[
  {
    "compound": "COc1ccc(-n2c(=O)c(C(=O)Nc3ccccc3Cl)c(O)c3cccnc32)cc1",
    "RP-LC retention time, s": 1270
  },
  {
    "compound": "CC(C)Cn1cc(CCNS(=O)(=O)c2cc(Cl)ccc2Cl)c2cccnc21",
    "RP-LC retention time, s": 1040
  },
  {
    "compound": "O=C(O)c1cnc(N2CCOCC2)nc1-c1cccc(Cl)c1",
    "RP-LC retention time, s": 770
  },
  {
    "compound": "O=C(Cn1nc2ncccn2c1=O)NCc1ccco1",
    "RP-LC retention time, s": 539
  },
  {
    "compound": "CCOC(=O)C(C)NC(=O)N1CCc2cc(-c3ccc(C(=O)N4CCOCC4)cc3)ccc21 (stereo unspecified)",
    "RP-LC retention time, s": 751
  }
]

Challenge: I am curious: what RP-LC retention time value has been reported for CCC(C)NC(=O)C1c2ccccc2CC(=O)N1C (stereo unspecified) ?
Response given: 658

Challenge: Same for `CCOc1ccc2nc(NC(=O)COc3nccc(C)n3)sc2c1`
Response given: 744

Challenge: Same for `CC1CCN(S(=O)(=O)c2ccc3c(c2)CCCC(=O)N3CC(=O)Nc2ccccc2)CC1`
Response given: 958

Challenge: Same for `CCC(=O)N1CCc2c(C(=O)NCc3ccc4c(c3)OCO4)cccc21`
Response given: 718

Challenge: Same for CC1(C)CC(=O)C2=C(C1)N(CC1CCCO1)C(=O)C2(NC(=O)c1ccccc1F)C(F)(F)F (stereo unspecified)
Response given: 908

Challenge: Same for `COc1ccc(CNC(=O)CCc2nnc3c4cc(-c5ccccc5)nn4ccn23)cc1`
Response given: 728

* * *

# experiment notes: gradient 5% acetonitrile 3 min, to 50% in 2 min, to 85% in 15 min, held 3 min, 100 µL/min
# reported conditions: column: Zorbax Extend-C18 2.1 x 50 mm; eluents: water / acetonitrile, 0.1% formic acid
Reported RP-LC retention time values for a set of compounds
Write it as a number; the unit s goes unstated.

Solved cases (4 shown):
[
  {
    "smi": "Cc1ccn2cc(-c3ccc(C)c(NS(=O)(=O)c4ccc(C)c(C)c4)c3)nc2c1",
    "unit tag": "s",
    "RP-LC retention time": 729
  },
  {
    "smi": "CCOC(=O)NCc1nc(COc2ccc(OC)cc2)no1",
    "unit tag": "s",
    "RP-LC retention time": 727
  },
  {
    "smi": "CCOC(=O)Cc1ccc(NC(=O)N2CCC3(CC2)NC(=O)c2ccccc2O3)cc1",
    "unit tag": "s",
    "RP-LC retention time": 761
  },
  {
    "smi": "CCN1CCN(c2nc(F)c(F)c(S(=O)(=O)CCNc3cccc4ccccc34)c2F)CC1",
    "unit tag": "s",
    "RP-LC retention time": 697
  }
]

// moving on: another record for RP-LC retention time
Challenge: I am curious: what RP-LC retention time value has been reported for `COC(=O)c1ccc(NC(=O)Cn2nc3n(c2=O)CCCC3)cc1` ?
Response given: 647

Every entry's value here was drawn from the METLIN SMRT retention time set (Domingo-Almenara et al. 2019).
